This collection of values is drawn from ChEMBL document CHEMBL1132234.

Assay method text: The compound was tested for inhibitory effect towards the pepsin hydrolysis of Horseradish peroxidase
Set-up: species or system plant
Measured property: IC50

* CC(C)CC(=O)N[C@H](C(=O)N[C@H](C(=O)N[C@@H](CC(C)C)[C@@H](O)CC(=O)N[C@@H](C)C(=O)N[C@@H](CC(C)C)[C@@H](O)CC(=O)O)C(C)C)C(C)C [PEPSTATIN] | 31 nM
* CCCCCCC(O)[C@H](CC(C)C)NC(=O)[C@@H](NC(=O)[C@@H](NC(=O)C1CC1)C(C)C)C(C)C (some centres not stated) | 4500 nM

###

Target entity: Pepsin A (Sus scrofa)
Sequence (P00791 whole entry): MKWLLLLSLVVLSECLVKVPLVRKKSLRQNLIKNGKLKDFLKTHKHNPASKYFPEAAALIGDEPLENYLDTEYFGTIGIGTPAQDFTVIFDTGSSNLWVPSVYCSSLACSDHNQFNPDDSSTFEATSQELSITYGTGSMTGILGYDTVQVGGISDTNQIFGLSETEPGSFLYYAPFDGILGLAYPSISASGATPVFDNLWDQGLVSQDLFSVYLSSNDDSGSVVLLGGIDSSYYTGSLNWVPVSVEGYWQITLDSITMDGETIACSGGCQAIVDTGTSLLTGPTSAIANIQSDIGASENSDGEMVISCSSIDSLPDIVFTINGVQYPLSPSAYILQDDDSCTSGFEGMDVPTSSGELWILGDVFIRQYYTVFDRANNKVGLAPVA
pIC50: −log10 of the molar value.
pIC50 values, listed per item
Measured property: pIC50

- CCCCCCC(O)[C@H](CC(C)C)NC(=O)[C@@H](NC(=O)[C@@H](NC(=O)OCc1ccccc1)C(C)C)C(C)C (some centres undefined): 6.16
- CCCCCCC(O)[C@H](CC(C)C)NC(=O)[C@@H](NC(=O)[C@@H](NC(=O)OC(C)C)C(C)C)C(C)C (some centres undefined): 5.92
- CCCCCCC(O)[C@H](CC(C)C)NC(=O)[C@@H](NC(=O)[C@@H](NC(=O)CC(C)C)C(C)C)C(C)C (some centres undefined): 6.04
- CCCCCCC(O)[C@H](CC(C)C)NC(=O)[C@@H](NC(=O)[C@@H](NC(=O)OC(C)(C)C)C(C)C)C(C)C (some centres undefined): 6.68
